// provenance: PubChem BioAssay AID1159580

- Assay Explanation: chemical genetic growth profiling, strain panel (AID 1159580);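 also: tested at 20 µM; growth read once vehicle control cultures reached saturation at 30 °C; 1 = growth at the plate median or of vehicle wells; lower values mean less growth of the strain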
- Measurement Conditions: S. cerevisiae deletion strains, growth OD, locus YDR318W, strain mcm21, stronger effect = lower value
The whole screen tested about 5,500 compounds, of which about 2,000 (36%) were called active. Another 18% or so got no clear call; they are omitted. This is one part of the list.
# Lookup of reported normalized growth keyed by entry
Quantity Measured: normalized growth

- Compound: "COC(=O)C[C@H]1C(C)(C)C(=O)[C@@H]2CC3=C(CC[C@]4(C)C3=CC(=O)O[C@H]4c3ccoc3)[C@@]1(C)C2=O"
  Observed Value: 1.02
- Compound: "CCN(CC)CCOC(=O)c1ccc(N)cc1"
  Observed Value: 0.977
- Compound: "CC(C)(C)CC(C)(C)c1ccc(O)c(Cc2ccc(Cl)cc2Cl)c1"
  Observed Value: 1.01
- Compound: "Oc1ccc(Cl)cc1"
  Observed Value: 0.977
- Compound: "CCCCN(CCCC)CCCOC(=O)c1ccc(N)cc1"
  Observed Value: 0.992
- Compound: "CC1OC1P(=O)(O)O (stereo unspecified)"
  Observed Value: 0.984
- Compound: "NC(N)=NS(=O)(=O)c1ccc(N)cc1"
  Observed Value: 0.998
- Compound: "O=C(O)c1ccccc1-c1c2cc(Br)c(=O)cc-2oc2[c]([Hg])c(O)c(Br)cc12"
  Observed Value: 0.07
- Compound: "COc1ccc(CCN2CCC(Nc3nc4ccccc4n3Cc3ccc(F)cc3)CC2)cc1"
  Observed Value: 0.984
- Compound: "CCCCOC(=O)c1ccccc1C(=O)OCCCC"
  Observed Value: 0.979
- Compound: "O=C(O)CN1C(=O)c2cccc3cccc(c23)C1=O"
  Observed Value: 0.978
- Compound: "CCCC(=O)O[C@]1(C(=O)CO)CCC2[C@@H]3CCC4=CC(=O)CC[C@]4(C)C3[C@@H](O)C[C@@]21C (stereo partly specified)"
  Observed Value: 1
- Compound: "Cc1cccc(C(=O)O)c1O"
  Observed Value: 1.02
- Compound: "Cn1c(=O)c2[nH]cnc2n(C)c1=O"
  Observed Value: 0.976
- Compound: "O=c1cc[nH]c(=S)[nH]1"
  Observed Value: 1.03
- Compound: "CCCCOC(=O)c1ccc(N)cc1"
  Observed Value: 0.897
- Compound: "Cc1ccc(Cl)c(Nc2ccccc2C(=O)O)c1Cl"
  Observed Value: 0.83
- Compound: "CC1(C)O[C@H]2[C@H](O)C[C@](O)(C(N)=O)C[C@H]2O1"
  Observed Value: 1.04
- Compound: "C#CCCCCCCCCCCCC(O)CC(O)COC(C)=O (stereo unspecified)"
  Observed Value: 0.889
- Compound: "CCCCN1CCCCC1C(=O)Nc1c(C)cccc1C (stereo unspecified)"
  Observed Value: 0.995
- Compound: "OC(Cn1cncn1)(Cn1cncn1)c1ccc(F)cc1F"
  Observed Value: 0.986
- Compound: "CC(=O)OCC(COC(C)=O)OC(C)=O"
  Observed Value: 1.01
- Compound: "Cc1cc(-c2ccccc2)nnc1NCCN1CCOCC1"
  Observed Value: 0.98
- Compound: "O=C1CC2OCC=C3CN4CC[C@]56c7ccccc7N1C5[C@H]2[C@H]3CC46 (stereo partly specified)"
  Observed Value: 0.999
- Compound: "CC1(C)C2(Cl)C(Cl)C(Cl)C(Cl)(C(Cl)Cl)C1(Cl)C2Cl (stereo unspecified)"
  Observed Value: 0.95
- Compound: "COC(=O)C1=CCCN(C)C1"
  Observed Value: 0.99
